Experiment: Cytotoxicity against human COLON cells after 48 hrs
Assay type: functional
Counter-ions that a name gives are not always drawn.
observed.property: log10 of TGI (log10 of the value in µM)
Answers are given as log10 of TGI in µM.

# example entries with known answers
INSERT INTO results (compound, observed_property, endpoint_result) VALUES
  ('CC[C@]1(O)C[C@H]2CN(CCc3c([nH]c4ccccc34)[C@@](C(=O)OC)(c3cc4c(cc3OC)N(C=O)[C@H]3[C@@](O)(C(=O)OC)[C@H](OC(C)=O)[C@]5(CC)C=CCN6CC[C@]43[C@@H]65)C2)C1 [VINCRISTINE SULFATE]', 'log10 of TGI', 0.60),
  ('COc1ccc2c(c1)/C(=C\c1c(-c3ccccn3)nc3sccn13)C(=O)N2', 'log10 of TGI', 0.13),
  ('COc1nc2sccn2c1/C=C1/C(=O)Nc2cccc(Cl)c21', 'log10 of TGI', 1.96);

**Q:** Quick one: log10 of TGI of O=C1Nc2ccccc2/C1=C\c1c(-c2ccccn2)nc2sccn12 ?
**A:** 1.72

**Q:** Quick one: log10 of TGI of COc1cc(-c2nc3sc(C)cn3c2/C=C2/C(=O)Nc3ccccc32)c(Br)c(OC)c1OC ?
**A:** 1.88

---

Assay: Cytotoxicity against human melanoma cells after 48 hrs
Assay type: functional
Conditions: Melanoma cell
Field: class. Source value: TGI. Ranges: class A = under 30 µM, class B = from 30 µM up to 60 µM, class C = 60 µM and over

Here's what some known entries look like.
INSERT INTO measurements (compound, cat) VALUES
  ('O=C1Nc2cc(Cl)ccc2C1=Cc1c(-c2ccccn2)nc2sccn12 (mixture of isomers)', 'class A'),
  ('Cc1ccc(-c2nc3sc(C)cn3c2/C=C2/C(=O)N(C)c3ccccc32)cc1', 'class C'),
  ('COc1nc2sccn2c1/C=C1/C(=O)N(C)c2ccccc21', 'class C'),
  ('O=C1Nc2ccccc2/C1=C\c1c(-c2ccccn2)nc2sccn12', 'class C'),
  ('Cc1cn2c(/C=C3/C(=O)Nc4c3ccc3ccccc43)c(C)nc2s1', 'class B');

**Q:** Tag the class for COc1nc2sccn2c1/C=C1/C(=O)Nc2ccccc21
**A:** class B

**Q:** Tag the class for COc1ccc2c(c1)C(=Cc1c(OC)nc3sccn13)C(=O)N2C (mixture of isomers)
**A:** class C

**Q:** Tag the class for COc1nc2sccn2c1/C=C1/C(=O)Nc2ccc(Cl)cc21
**A:** class B

**Q:** Tag the class for COc1nc2sccn2c1/C=C1/C(=O)Nc2cc(Cl)ccc21
**A:** class B

---

This listing pairs compounds with measured LC50.
Test system: NSCLC
Experiment: Cytotoxicity against human NSCLC cells after 48 hrs
Type: functional
// note: answer is a bare numeric in µM

INSERT INTO results (compound, observed_property, endpoint_result) VALUES
  ('O=C1Nc2ccc(Cl)cc2C1=Cc1c(-c2ccccn2)nc2sccn12 (mixture of isomers)', 'LC50', 58.9),
  ('Cc1nn2c(/C=C3/C(=O)Nc4c3ccc3ccccc43)c(C)nc2s1', 'LC50', 74.1),
  ('COc1nc2sccn2c1/C=C1/C(=O)Nc2ccccc21', 'LC50', 93.3),
  ('O=C1Nc2cc(Cl)ccc2C1=Cc1c(-c2ccccn2)nc2sccn12 (mixture of isomers)', 'LC50', 49),
  ('COc1ccc2c(c1)/C(=C\c1c(-c3ccccn3)nc3sccn13)C(=O)N2', 'LC50', 39.8);

Could you now look at the following compound, please?
**Q:** Quick one: LC50 of Cc1cn2c(/C=C3/C(=O)Nc4c3ccc3ccccc43)c(C)nc2s1 ?
**A:** 93.3

---

Assay: Cytotoxicity against human melanoma cells after 48 hrs
Type: functional
Conditions: Melanoma cell
observed.property: GI50 (nM)
// note: answer is a bare numeric in nM

INSERT INTO measurements (compound, uom, endpoint_result) VALUES
  ('COc1nc2sccn2c1C=C1C(=O)Nc2ccc(F)cc21 (mixture of isomers)', 'nM', 6030),
  ('Cc1nn2c(/C=C3/C(=O)Nc4ccc(F)cc43)c(C)nc2s1', 'nM', 26900);

**Q:** Quick one: GI50 of Cc1ccc(-c2nc3sc(C)cn3c2/C=C2/C(=O)N(C)c3ccccc32)cc1 ?
**A:** 17400

**Q:** Quick one: GI50 of COc1ccc2c(c1)/C(=C\c1c(-c3ccc(C)cc3)nc3sc(C)cn13)C(=O)N2C ?
**A:** 52500

**Q:** Quick one: GI50 of O=C1Nc2cc(Cl)ccc2C1=Cc1c(-c2ccccn2)nc2sccn12 (mixture of isomers) ?
**A:** 120

---

Experiment: Cytotoxicity against human COLON cells after 48 hrs
Type: functional
observed.property: TGI
Answer format: number, then unit.

INSERT INTO assay_data (compound, endpoint_result) VALUES
  ('COc1nc2sccn2c1/C=C1/C(=O)Nc2cc(Cl)ccc21', '22.4 µM'),
  ('COc1nc2sccn2c1/C=C1/C(=O)Nc2ccccc21', '13.8 µM');

**Q:** Quick one: TGI of COc1nc2sccn2c1C=C1C(=O)Nc2ccc(F)cc21 (mixture of isomers) ?
**A:** 61.7 µM

**Q:** Quick one: TGI of O=C1Nc2ccc(Cl)cc2C1=Cc1c(-c2ccccn2)nc2sccn12 (mixture of isomers) ?
**A:** 10.5 µM

**Q:** Quick one: TGI of COc1ccc2c(c1)/C(=C\c1c(-c3ccc(C)cc3)nc3sc(C)cn13)C(=O)N2C ?
**A:** 33.1 µM

---

Species: Bos taurus
Assay: Displacement of [3H]colchicine from bovine brain tubulin at 5 uM after 10 mins
Threshold rule: inhibition greater than or equal to 50% is yes (1); below that, no (0).

Here's what some known entries look like.
INSERT INTO results (compound, cat) VALUES
  ('O=C1Nc2ccc(Cl)cc2C1=Cc1c(-c2ccccn2)nc2sccn12 (mixture of isomers)', 'no (0)'),
  ('Cc1nn2c(/C=C3/C(=O)Nc4c3ccc3ccccc43)c(C)nc2s1', 'no (0)'),
  ('COc1ccc2c(c1)/C(=C\c1c(-c3ccccn3)nc3sccn13)C(=O)N2', 'no (0)');

**Q:** Form field: inhibition at least 50%? Entry: COc1ccc2c(c1)C(=Cc1c(OC)nc3sccn13)C(=O)N2C (mixture of isomers)
**A:** no (0)

**Q:** Form field: inhibition at least 50%? Entry: COc1nc2sccn2c1/C=C1/C(=O)Nc2cc(Cl)ccc21
**A:** yes (1)

**Q:** Form field: inhibition at least 50%? Entry: COc1ccc2c(c1)C(=Cc1c(OC)nc3sccn13)C(=O)N2 (mixture of isomers)
**A:** yes (1)

**Q:** Form field: inhibition at least 50%? Entry: COc1nc2sccn2c1/C=C1/C(=O)Nc2ccccc21
**A:** no (0)

**Q:** Form field: inhibition at least 50%? Entry: O=C1Nc2cc(Cl)ccc2C1=Cc1c(-c2ccccn2)nc2sccn12 (mixture of isomers)
**A:** no (0)

---

Experiment: Cytotoxicity against human breast cancer cells after 48 hrs
Type: functional
Conditions: Cancer cell lines
observed.property: GI50 (µM)
// note: answer is a bare numeric in µM

# example entries with known answers
INSERT INTO measurements (compound, endpoint_result) VALUES
  ('Cc1cn2c(/C=C3/C(=O)Nc4c3ccc3ccccc43)c(C)nc2s1', 0.18),
  ('COc1ccc2c(c1)C(=Cc1c(OC)nc3sccn13)C(=O)N2C (mixture of isomers)', 0.49),
  ('O=C1Nc2cc(Cl)ccc2C1=Cc1c(-c2ccccn2)nc2sccn12 (mixture of isomers)', 0.21),
  ('Cc1nn2c(/C=C3/C(=O)Nc4ccc(F)cc43)c(C)nc2s1', 6.31),
  ('COc1ccc2c(c1)C(=Cc1c(OC)nc3sccn13)C(=O)N2 (mixture of isomers)', 0.17),
  ('COc1ccc2c(c1)/C(=C\c1c(-c3ccccn3)nc3sccn13)C(=O)N2', 0.04),
  ('COc1nc2sccn2c1/C=C1/C(=O)Nc2ccccc21', 0.28),
  ('COc1ccc2c(c1)/C(=C\c1c(-c3ccc(Cl)cc3)nc3sc(C)nn13)C(=O)N2', 95.5);

**Q:** Quick one: GI50 of COc1ccc2c(c1)/C(=C\c1c(-c3ccc(C)cc3)nc3sc(C)cn13)C(=O)N2C ?
**A:** 12.9

**Q:** Quick one: GI50 of COc1nc2sccn2c1C=C1C(=O)Nc2ccc(F)cc21 (mixture of isomers) ?
**A:** 2.88

---

Assay: Cytotoxicity against human CNS cancer cells after 48 hrs
Type: functional
Details: Cancer cell lines
This listing pairs molecules with measured LC50.
// note: answer is a bare numeric in µM

# example entries with known answers
INSERT INTO measurements (molecule, uom, endpoint_result) VALUES
  ('Cc1cn2c(/C=C3/C(=O)Nc4c3ccc3ccccc43)c(C)nc2s1', 'µM', 74.1),
  ('COc1nc2sccn2c1/C=C1/C(=O)Nc2ccccc21', 'µM', 50.1),
  ('COc1nc2sccn2c1/C=C1/C(=O)Nc2cc(Cl)ccc21', 'µM', 75.9),
  ('Cc1nn2c(/C=C3/C(=O)Nc4c3ccc3ccccc43)c(C)nc2s1', 'µM', 46.8),
  ('COc1nc2sccn2c1/C=C1/C(=O)Nc2cccc(Cl)c21', 'µM', 87.1),
  ('O=C1Nc2ccccc2/C1=C\c1c(-c2ccccn2)nc2sccn12', 'µM', 89.1),
  ('O=C1Nc2cc(Cl)ccc2C1=Cc1c(-c2ccccn2)nc2sccn12 (mixture of isomers)', 'µM', 38),
  ('COc1ccc2c(c1)/C(=C\c1c(-c3ccccn3)nc3sccn13)C(=O)N2', 'µM', 34.7);

Could you now look at the following molecule, please?
**Q:** Quick one: LC50 of O=C1Nc2ccc(Cl)cc2C1=Cc1c(-c2ccccn2)nc2sccn12 (mixture of isomers) ?
**A:** 66.1

Measured values drawn from ChEMBL document CHEMBL2062525 for this set.
